system: S. aureus; assay: antibiotic activity (MIC); type: cell-based; conditions: Staphylococcus aureus; S. aureus; read-out: MIC
endpoint label: MIC

COC(=O)CC[C@@H](C)[C@H]1CC[C@H]2[C@@H]3C[C@@H](O)[C@H]4C[C@H](NCCCNCCCCNCCCN)CC[C@]4(C)[C@H]3CC[C@]12C :: 2 to 4 µg/mL

Lookup: // lookup MIC for CC(C)C(O)CC[C@@H](C)[C@H]1CC[C@H]2[C@@H]3[C@H](O)C[C@H]4C[C@@H](NCCCNCCCCN(C)C)CC[C@]4(C)[C@H]3CC[C@]12C (stereo partly drawn) [MSI-1239A]
Found: 8 to 16 µg/mL

Lookup: // lookup MIC for COC(=O)CC[C@@H](C)[C@H]1CC[C@H]2[C@@H]3[C@H](O)C[C@H]4C[C@@H](NCCCNCCCCNCCCN)CC[C@]4(C)[C@H]3CC[C@]12C
Found: 2 to 4 µg/mL

Source listed as patent US5763430A.
